- assayed_target: Dihydropteroate synthase (Bacillus anthracis)
- Sequence (Q81VW8 whole entry): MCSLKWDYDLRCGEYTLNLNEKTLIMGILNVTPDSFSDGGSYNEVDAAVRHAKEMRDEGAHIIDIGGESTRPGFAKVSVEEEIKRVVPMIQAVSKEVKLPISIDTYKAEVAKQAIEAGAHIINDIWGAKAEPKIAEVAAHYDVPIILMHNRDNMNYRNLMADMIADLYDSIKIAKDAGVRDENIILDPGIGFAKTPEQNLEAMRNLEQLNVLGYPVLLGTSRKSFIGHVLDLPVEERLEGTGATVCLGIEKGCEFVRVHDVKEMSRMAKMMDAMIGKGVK
- experiment_description: Inhibition of fluorescein-labeled probe binding to Bacillus anthracis N-terminal His-tagged DHPS incubated for 1 hr by fluorescence polarization assay
For each of the molecules below, state its pIC50.
Numbers only, as −log10 of the molar value.

Example cases with answers are listed next.
- smiles_input: "COc1cc(NS(=O)(=O)c2ccc(NCc3cnc4nc(N)[nH]c(=O)c4n3)cc2)nc(OC)n1"
  obs_value: 4.57
- smiles_input: "Nc1ccc(S(=O)(=O)c2ccc(NCc3cnc4nc(N)[nH]c(=O)c4n3)cc2)cc1"
  obs_value: 4.75

// for each molecule below, give its pIC50
1. Cc1cc(NS(=O)(=O)c2ccc(NCc3cnc4nc(N)[nH]c(=O)c4n3)cc2)no1
2. CC(=O)NS(=O)(=O)c1ccc(NCc2cnc3nc(N)[nH]c(=O)c3n2)cc1
3. Nc1nc2ncc(CNc3ccc(S(=O)(=O)Nc4ncccn4)cc3)nc2c(=O)[nH]1
4. COc1ncnc(NS(=O)(=O)c2ccc(NCc3cnc4nc(N)[nH]c(=O)c4n3)cc2)c1OC

[4.69, 4.73, 4.71, 4.82]

Could you share which pIC50 value was measured for "Cc1noc(NS(=O)(=O)c2ccc(NCc3cnc4nc(N)[nH]c(=O)c4n3)cc2)c1C" ?
4.65
